Kindly supply the reported MIC values for the records listed here.
Test system: Staphylococcus aureus V41
Conditions: agar dilution
Give bare numbers, in µg/mL.

compound="CN[C@H](CC(C)C)C(=O)N[C@H]1C(=O)N[C@@H](CC(N)=O)C(=O)N[C@H]2C(=O)N[C@H]3C(=O)N[C@H](C(=O)N[C@H](C(=O)O)c4cc(O)cc(O)c4-c4cc3ccc4O)[C@H](O)c3ccc(c(Cl)c3)Oc3cc2cc(c3O[C@@H]2O[C@H](CO)[C@@H](O)[C@H](O)[C@H]2O)Oc2ccc(cc2Cl)[C@H]1O [Compound 13, Desvancosamine-Vancomycin]" unit_spec=µg/mL numeric_value=8
compound="CC(C)C[C@H](C(=O)N[C@H]1C(=O)N[C@@H](CC(N)=O)C(=O)N[C@H]2C(=O)N[C@H]3C(=O)N[C@H](C(=O)N[C@H](C(=O)[O-])c4cc(O)cc(O)c4-c4cc3ccc4O)[C@H](O)c3ccc(c(Cl)c3)Oc3cc2cc(c3O)Oc2ccc(cc2Cl)[C@H]1O)[N+](C)(C)C [Compound 11, Agluco-M43A]" unit_spec=µg/mL numeric_value=2

I am curious: what MIC value has been reported for CC(C)C[C@@H](N)C(=O)N[C@H]1C(=O)N[C@@H](CC(N)=O)C(=O)N[C@H]2C(=O)N[C@H]3C(=O)N[C@H](C(=O)N[C@H](C(=O)O)c4cc(O)cc(O)c4-c4cc3ccc4O)[C@H](O)c3ccc(c(Cl)c3)Oc3cc2cc(c3O[C@@H]2O[C@H](CO)[C@@H](O)[C@H](O)[C@H]2O)Oc2ccc(cc2Cl)[C@H]1O [Compound 12, Desvancosamine-A51568A] ? 2

Data provenance is patent US4552701A.
